- measured on: HRgpA-6H (Porphyromonas gingivalis) (UniProt P28784)
- measurement protocol: ELISA, FASEBA Fab on coated HRgpA-6H
measured metric: Ratio OD(Variant)/OD(WT)

Worked set:
binder	observed value
KB001 mouse Fab VL A25E (Fab, V domains shown) VH: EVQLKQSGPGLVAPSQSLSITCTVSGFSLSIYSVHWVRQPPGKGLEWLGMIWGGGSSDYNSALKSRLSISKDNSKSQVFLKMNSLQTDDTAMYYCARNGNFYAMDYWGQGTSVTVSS VL: QIVLTQSPAIMSASLGERVTMTCTESSSVSSSFLHWYQQKPGSSPQLWIYSTSNLASGVPARFSGSGSGTSYSLTISSMEAEDAATYYCHQYHHSPYIYTFGGGTKLEIK	0.837
KB001 mouse Fab VL S32P (Fab, V domains shown) VH: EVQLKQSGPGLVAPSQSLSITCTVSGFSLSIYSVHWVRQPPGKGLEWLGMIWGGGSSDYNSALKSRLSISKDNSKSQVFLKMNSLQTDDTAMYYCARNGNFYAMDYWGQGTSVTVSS VL: QIVLTQSPAIMSASLGERVTMTCTASSSVSSPFLHWYQQKPGSSPQLWIYSTSNLASGVPARFSGSGSGTSYSLTISSMEAEDAATYYCHQYHHSPYIYTFGGGTKLEIK	0.88

Now for a further binder.
Q: Dear colleague, I am looking for the recorded Ratio OD(Variant)/OD(WT) of the following binder: KB001 mouse Fab VL N54D (Fab, V domains shown) VH: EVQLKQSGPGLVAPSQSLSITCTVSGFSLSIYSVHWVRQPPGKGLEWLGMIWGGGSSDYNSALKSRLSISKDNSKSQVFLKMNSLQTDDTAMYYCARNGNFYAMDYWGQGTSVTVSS VL: QIVLTQSPAIMSASLGERVTMTCTASSSVSSSFLHWYQQKPGSSPQLWIYSTSDLASGVPARFSGSGSGTSYSLTISSMEAEDAATYYCHQYHHSPYIYTFGGGTKLEIK
Result: 0.925
